- Tested on: TTR
- test-description: TTR editing in primary cyno hepatocytes electroporated with Spy Cas9 protein and sgRNAs (Tables 14, 15)
- Format: cell-based, cynomolgus monkey
- protocol-conditions: Table 14; primary cyno hepatocytes electroporated with Spy Cas9 protein (RNP) and sgRNAs
Strand notation (5' to 3'): a small letter for the sugar, then the base; units joined by * are phosphorothioate-linked, units joined directly phosphodiester-linked; [ ] holds rarer units or linkages, { } end groups; capitals alone tell only the bases. m = 2'-O-methyl; r = 2'-OH (RNA)
metric: Avg % Insert
Form field: result (number plus unit)

Before answering, review these 4 worked examples.
molecule: G000499: TTR sgRNA modified sequence, Human, SEQ ID No. 106; guide sequence of CR005303 (nucleic acid) guide: mU*mG*mA*rArUrCrCrArArGrUrGrUrCrCrUrCrUrGrArGrUrUrUrUrArGrAmGmCmUmAmGmAmAmAmUmAmGmCrArArGrUrUrArArArArUrArArGrGrCrUrArGrUrCrCrGrUrUrArUrCrAmAmCmUmUmGmAmAmAmAmAmGmUmGmGmCmAmCmCmGmAmGmUmCmGmGmUmGmCmU*mU*mU*mU
Avg % Insert: 82.00%

molecule: G000494: TTR sgRNA modified sequence, Human, SEQ ID No. 101; guide sequence of CR003360 (nucleic acid) guide: mG*mU*mG*rArGrUrCrUrGrGrArGrArGrCrUrGrCrArUrGrUrUrUrUrArGrAmGmCmUmAmGmAmAmAmUmAmGmCrArArGrUrUrArArArArUrArArGrGrCrUrArGrUrCrCrGrUrUrArUrCrAmAmCmUmUmGmAmAmAmAmAmGmUmGmGmCmAmCmCmGmAmGmUmCmGmGmUmGmCmU*mU*mU*mU
Avg % Insert: 79.57%

molecule: G000482: TTR sgRNA modified sequence, Human, SEQ ID No. 89; guide sequence of CR003365 (nucleic acid) guide: mU*mG*mU*rArGrArArGrGrGrArUrArUrArCrArArArGrGrUrUrUrUrArGrAmGmCmUmAmGmAmAmAmUmAmGmCrArArGrUrUrArArArArUrArArGrGrCrUrArGrUrCrCrGrUrUrArUrCrAmAmCmUmUmGmAmAmAmAmAmGmUmGmGmCmAmCmCmGmAmGmUmCmGmGmUmGmCmU*mU*mU*mU
Avg % Insert: 55.23%

molecule: G000490: TTR sgRNA modified sequence, Human, SEQ ID No. 97; guide sequence of CR003366 (nucleic acid) guide: mA*mA*mA*rUrArGrArCrArCrCrArArArUrCrUrUrArCrGrUrUrUrUrArGrAmGmCmUmAmGmAmAmAmUmAmGmCrArArGrUrUrArArArArUrArArGrGrCrUrArGrUrCrCrGrUrUrArUrCrAmAmCmUmUmGmAmAmAmAmAmGmUmGmGmCmAmCmCmGmAmGmUmCmGmGmUmGmCmU*mU*mU*mU
Avg % Insert: 54.47%

Q) Need Avg % Insert of G000500: TTR sgRNA modified sequence, Human, SEQ ID No. 107; guide sequence of CR003337 (nucleic acid) guide: mC*mC*mA*rGrUrCrCrArGrCrArArGrGrCrArGrArGrGrGrUrUrUrUrArGrAmGmCmUmAmGmAmAmAmUmAmGmCrArArGrUrUrArArArArUrArArGrGrCrUrArGrUrCrCrGrUrUrArUrCrAmAmCmUmUmGmAmAmAmAmAmGmUmGmGmCmAmCmCmGmAmGmUmCmGmGmUmGmCmU*mU*mU*mU , thanks.
A) 42.60%

Q) Can you handle G000480: TTR sgRNA modified sequence, Human, SEQ ID No. 87; guide sequence of CR003353 (nucleic acid) guide: mA*mA*mA*rGrGrCrUrGrCrUrGrArUrGrArCrArCrCrUrGrUrUrUrUrArGrAmGmCmUmAmGmAmAmAmUmAmGmCrArArGrUrUrArArArArUrArArGrGrCrUrArGrUrCrCrGrUrUrArUrCrAmAmCmUmUmGmAmAmAmAmAmGmUmGmGmCmAmCmCmGmAmGmUmCmGmGmUmGmCmU*mU*mU*mU next?
A) 9.83%

Q) // repeat for G000491: TTR sgRNA modified sequence, Human, SEQ ID No. 98; guide sequence of CR003338 (nucleic acid) guide: mA*mU*mA*rCrCrArGrUrCrCrArGrCrArArGrGrCrArGrGrUrUrUrUrArGrAmGmCmUmAmGmAmAmAmUmAmGmCrArArGrUrUrArArArArUrArArGrGrCrUrArGrUrCrCrGrUrUrArUrCrAmAmCmUmUmGmAmAmAmAmAmGmUmGmGmCmAmCmCmGmAmGmUmCmGmGmUmGmCmU*mU*mU*mU and report
A) 64.37%
